Assay: Lipophilicity, logP of the compound
Format: physicochemical
Conditions: octanol/water

# substance.smiles, logP
records = [
    ("COCCO[C@@H]1C(c2ccc(C#N)c(Cl)c2C)=NN2CC[C@H](O)[C@@H]12", 2),
    ("CO[C@@H]1C(c2ccc(C#N)c(Cl)c2C)=NN2CC[C@@H](O)[C@@H]12", 1.9),
    ("CO[C@@H]1C(c2ccc(C#N)c(Cl)c2C)=NN2CC[C@H](O)[C@@H]12", 2),
    ("CCO[C@@H]1C(c2ccc(C#N)c(Cl)c2C)=NN2CC[C@H](O)[C@@H]12", 2.4),
    ("CO[C@@H]1C(c2ccc(C#N)c(Cl)c2C)=NN2CC(F)(F)C[C@@H]12", 3.2),
    ("CO[C@@H]1C(c2ccc(C#N)c(Cl)c2C)=NN2CC[C@@H](F)[C@@H]12", 2.7),
]

----------
Target: Glucocorticoid receptor (Homo sapiens, UniProt P04150)
Sequence (P04150 whole entry): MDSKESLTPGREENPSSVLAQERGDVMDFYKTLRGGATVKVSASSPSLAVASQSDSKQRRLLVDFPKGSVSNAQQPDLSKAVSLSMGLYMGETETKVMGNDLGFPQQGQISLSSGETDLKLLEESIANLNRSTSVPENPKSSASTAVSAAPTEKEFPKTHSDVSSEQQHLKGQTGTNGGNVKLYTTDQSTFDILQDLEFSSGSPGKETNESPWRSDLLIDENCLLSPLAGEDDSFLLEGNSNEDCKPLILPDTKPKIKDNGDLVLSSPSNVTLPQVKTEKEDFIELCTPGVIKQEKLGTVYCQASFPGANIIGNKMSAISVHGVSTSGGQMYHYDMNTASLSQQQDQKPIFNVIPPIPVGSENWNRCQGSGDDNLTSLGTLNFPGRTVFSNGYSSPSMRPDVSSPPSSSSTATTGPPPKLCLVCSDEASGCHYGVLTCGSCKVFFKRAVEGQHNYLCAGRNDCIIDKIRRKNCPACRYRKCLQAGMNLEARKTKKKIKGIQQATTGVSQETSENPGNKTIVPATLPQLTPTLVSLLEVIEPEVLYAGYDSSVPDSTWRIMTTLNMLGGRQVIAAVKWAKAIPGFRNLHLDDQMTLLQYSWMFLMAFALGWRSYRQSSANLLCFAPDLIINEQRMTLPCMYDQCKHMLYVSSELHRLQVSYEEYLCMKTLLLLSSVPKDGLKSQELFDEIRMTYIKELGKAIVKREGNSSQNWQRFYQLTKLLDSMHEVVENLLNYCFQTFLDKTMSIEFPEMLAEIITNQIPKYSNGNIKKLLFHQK
reported.endpoint: IC50

# substance.smiles, system, reported.endpoint, reported.value
measured = [
    ("CO[C@@H]1C(c2ccc(C#N)c(Cl)c2C)=NN2CC[C@H](O)[C@@H]12", "Glucocorticoid receptor (Homo sapiens, UniProt P04150)", "IC50", "> 1000 nM"),
]

----------
Biological target: Progesterone receptor (Homo sapiens, UniProt P06401)
Sequence (P06401 whole entry): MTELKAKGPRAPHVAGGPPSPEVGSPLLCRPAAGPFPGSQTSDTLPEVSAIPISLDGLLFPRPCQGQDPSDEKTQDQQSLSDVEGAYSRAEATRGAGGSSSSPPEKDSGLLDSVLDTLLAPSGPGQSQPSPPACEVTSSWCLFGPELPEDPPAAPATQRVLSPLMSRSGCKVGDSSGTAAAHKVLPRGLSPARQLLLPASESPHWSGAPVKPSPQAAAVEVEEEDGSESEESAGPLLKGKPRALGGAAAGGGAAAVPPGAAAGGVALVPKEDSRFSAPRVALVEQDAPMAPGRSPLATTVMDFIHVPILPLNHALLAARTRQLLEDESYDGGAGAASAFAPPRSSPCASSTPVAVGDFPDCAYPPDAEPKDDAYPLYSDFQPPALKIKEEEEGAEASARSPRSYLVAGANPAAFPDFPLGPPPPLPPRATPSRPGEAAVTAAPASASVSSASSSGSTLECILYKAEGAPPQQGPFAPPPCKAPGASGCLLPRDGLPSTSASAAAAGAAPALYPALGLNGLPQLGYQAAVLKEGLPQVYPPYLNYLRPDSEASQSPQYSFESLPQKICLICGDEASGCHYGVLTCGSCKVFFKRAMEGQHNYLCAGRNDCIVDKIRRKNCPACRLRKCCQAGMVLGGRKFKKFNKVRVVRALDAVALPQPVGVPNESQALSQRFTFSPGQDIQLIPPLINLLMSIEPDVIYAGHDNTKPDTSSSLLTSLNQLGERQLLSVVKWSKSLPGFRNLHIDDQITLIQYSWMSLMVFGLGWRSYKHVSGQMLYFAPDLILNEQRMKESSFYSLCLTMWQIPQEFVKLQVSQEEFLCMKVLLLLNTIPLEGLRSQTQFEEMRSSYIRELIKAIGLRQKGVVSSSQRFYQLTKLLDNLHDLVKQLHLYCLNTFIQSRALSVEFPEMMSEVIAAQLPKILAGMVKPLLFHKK
reported.endpoint: IC50

# substance.smiles, reported.value
rows = [
    ("CO[C@@H]1C(c2ccc(C#N)c(Cl)c2C)=NN2CC[C@H](O)[C@@H]12", "700 nM"),
]
